Test system: Fibroblast
Assay: Multiplex assay against human fibroblast
Format: toxicity, cell-based
Details: 24 h, 10 µM, compound concentration 10 uM, replicate 1
Exercise: for every item that follows, state its recorded Population Pyknosed Nuclei (%).
Give bare numbers, in %.

Illustrative cases are given below, each with its answer.
{"compound": "CC(F)(F)CN1CCOc2c(nn(-c3ccccc3Cl)c2-c2ccc(Cl)cc2)C1=O", "Population Pyknosed Nuclei (%)": 10}
{"compound": "COc1cc(Nc2ncc3c(n2)-c2ccc(Cl)cc2C(c2c(F)cccc2OC)=NC3)ccc1C(=O)O [ALISERTIB]", "Population Pyknosed Nuclei (%)": 25}
{"compound": "Cl.Cl.OCCOCCN1CCN(C(c2ccccc2)c2ccc(Cl)cc2)CC1 (stereo not drawn) [HYDROXYZINE HYDROCHLORIDE]", "Population Pyknosed Nuclei (%)": 9}
{"compound": "OCCCNc1cc(-c2ccnc(Nc3cccc(Cl)c3)n2)ccn1", "Population Pyknosed Nuclei (%)": 20}
{"compound": "COc1cc2nc(N3CCN(C(=O)COc4c(OC)cccc4C(C)C)CC3)nc(N)c2cc1OC.Cl.Cl", "Population Pyknosed Nuclei (%)": 41}
{"compound": "COCCn1c(C)c(C)s/c1=N\\C(=O)C1C(C)(C)C1(C)C", "Population Pyknosed Nuclei (%)": 19}

Required: Population Pyknosed Nuclei (%), one value per compound below.
1. C[C@H](NC(=O)CNC(=O)c1cccc(Cl)c1)c1ccccc1
2. CCc1nn2c(C)cc(C)nc2c1Cc1ccc(-c2nnc(C3CCNCC3)o2)cc1
3. CSc1nc(NC2CCCC2)c([N+](=O)[O-])c(NC2CCCC2)n1 [GS-39783]

1: 24; 2: 17; 3: 17
